tested on: UO-31 renal; assay: NCI-60 one-dose screen, 48 h; details: 10 µM unless noted
This is part of a sample that, as a whole, favours compounds with a hit. Of some 83,000 tested, about 20% had one in any assay. Active and inactive are the calls of the source. How the source made its calls: active means growth percent below 10; inactive means the rest.
Respond with a class label; see 1 = active, 0 = inactive

(Q) Per the assay record, what outcome was assigned to `O=C(Cn1nc(-c2cccc3ccccc23)ccc1=O)NCc1cccc(Cl)c1` ?
(A) 0

(Q) Per the assay record, what outcome was assigned to `C#CCOc1cccc(Nc2ncnc3cc(NC(=O)CCl)ccc23)c1` ?
(A) 1

(Q) Per the assay record, what outcome was assigned to `O=C1C=C(SCCO)C(=O)c2ccccc21` ?
(A) 1

(Q) Per the assay record, what outcome was assigned to `CCOC(=O)C/C(=N\Nc1cc(=O)[nH]c2ccc(C)cc12)C(=O)OCC` ?
(A) 0

(Q) Per the assay record, what outcome was assigned to `CCOC(=O)c1c(NC(=O)c2ccccc2)sc2c3c(ccc12)OCN(C)C3` ?
(A) 1

(Q) Per the assay record, what outcome was assigned to `ClCCn1cnc2c(SCc3ccccc3)ncnc21` ?
(A) 0

(Q) Per the assay record, what outcome was assigned to CNC(=O)NCC1OC(n2cnc3c(NC(=O)Nc4ccccc4)ncnc32)C2OC(=O)CC12 (stereo not given) ?
(A) 0

(Q) Per the assay record, what outcome was assigned to `CNCCCNc1nc2ccccc2c2c(=O)c3cc(Cl)ccc3sc12` ?
(A) 1

(Q) Per the assay record, what outcome was assigned to `CCOC(=O)CNC1=C(Cl)C(=O)N(Cc2ccc(Cl)cc2)C1=O` ?
(A) 0

(Q) Per the assay record, what outcome was assigned to `COc1cc(/C=C/C(=O)c2cc(OC)c(OC)c(OC)c2)ccc1Oc1nc2c(c(=O)n(C)c(=O)n2C)n1C` ?
(A) 1
